These data points were gathered from PubChem BioAssay (NCI).

test system: NCI-H460 lung; experiment: NCI tumour cell line growth inhibition, 48 h
measurement.label: TGI

Consider the following illustrative entries.
[
  {
    "compound": "C#CCN(CCCOc1ccc(Cl)cc1Cl)CCCSC(=O)CCCCCN1/C(=C\\C=C2/CCCC(/C=C/C3=[N+](CCCCCC(=O)[O-])c4ccccc4C3(C)C)=C2Cl)C(C)(C)c2ccccc21",
    "TGI": "5.01 µM"
  },
  {
    "compound": "CC(C)(C)c1cc(C(C)(C)C)c2sc(=O)oc2c1O",
    "TGI": "18.8 µM"
  },
  {
    "compound": "O=C(CCCCCCCCC(=O)N1C(=O)CC(=O)N(c2ccc(Cl)cc2)C1=S)N1C(=O)CC(=O)N(c2ccc(Cl)cc2)C1=S",
    "TGI": "> 100 µM"
  },
  {
    "compound": "Cc1cc(S(=O)(=O)NC2=NCc3c(F)cccc3N2)c(S)cc1Cl",
    "TGI": "> 100 µM"
  },
  {
    "compound": "CCOC(=O)c1c(-c2ccc(Cl)cc2)c(C#N)c(=S)n(C2OC(COC(C)=O)C(OC(C)=O)C(OC(C)=O)C2OC(C)=O)c1C (stereo unspecified)",
    "TGI": "> 100 µM"
  }
]

Which TGI is reported for this compound? CC(=O)CCN1CC2CN=NC2(C#N)C1 (stereo unspecified)
> 100 µM

---

test system: UO-31 renal; experiment: NCI tumour cell line growth inhibition, 48 h
Each entry below carries its reported TGI.

[
  {
    "compound": "O=C(NCCNC1=CC(=O)c2nc3ccccc3c3ccnc1c23)c1cnccn1",
    "measurement.label": "TGI",
    "result": "> 100 µM"
  },
  {
    "compound": "C=C(CCC(=O)N(CCc1c[nH]c2ccccc12)C(=O)c1ccccc1CSCC)C(=O)OC",
    "measurement.label": "TGI",
    "result": "> 100 µM"
  },
  {
    "compound": "COc1ccc(C2=NOC3=c4ccccc4=CSC3=C2c2ccccc2)cc1",
    "measurement.label": "TGI",
    "result": "> 100 µM"
  },
  {
    "compound": "O=C(CN1CCCC1)Nc1ccc2c(c1)C1Oc3ccccc3CC1CO2 (stereo not given)",
    "measurement.label": "TGI",
    "result": "84.4 µM"
  }
]

Which TGI is reported for this compound? "COC(=O)c1c2c(cc3c1CC1(Cc4cc5c(cc4C1)CCCC5)C3)CCCC2"
> 100 µM

---

Each entry below carries its reported GI50.
test system: MCF7 breast; test: NCI tumour cell line growth inhibition, 48 h

Consider the following illustrative entries.
[
  {
    "compound": "CN(C)CC(=O)N1CCc2c([nH]c3ccccc23)C1c1cccnc1 (centres undefined)",
    "result": "70.2 µM"
  },
  {
    "compound": "COc1ccc(-c2nc3sccn3c2/C=C/C(=O)c2cc(OC)c(OC)c(OC)c2)cc1",
    "result": "1.85 µM"
  },
  {
    "compound": "Oc1ccccc1/C=N/c1nc(-c2ccccc2)cs1",
    "result": "14.1 µM"
  }
]

Then this compound:
Which GI50 is reported for this compound? "Clc1cc(Cl)cc(Nc2ccc3c(OCCCN4CCOCC4)cccc3n2)c1"
1.74 µM
